details: 303.15 K; 101.33 kPa; Liquid; Vibrating tube method
Result Type: mass density (kg/m3)
Answers are plain numbers, in kg/m3.

CCCCO [butan-1-ol]; 802.08
CCO [ethanol]; 780.65

Give measured mass density for every item shown.
1. CCCO [propan-1-ol]
2. CO [methanol]
3. CC(=O)[O-].Cn1cc[nH+]c1 [1-methylimidazolium acetate]

Data returned:
795.6
781.81
1070.89

====

details: 313.15 K; 101.33 kPa; Liquid; Vibrating tube method
Please respond with true (1) when measured mass density is strictly beneath 800 kg/m3, and with false (0) in all other cases.

CC(=O)[O-].Cn1cc[nH+]c1 [1-methylimidazolium acetate]; false (0)

Data request: Here's an entry: CO . Is its mass density below 800 kg/m3?
Data returned: true (1)

Data request: Please give the result for CCO too.
Data returned: true (1)

====

conditions: 308.15 K; 101.33 kPa; Liquid; Falling or rolling sphere viscometry
Give measured log10 of viscosity for each item. Keep answers brief.
Short version: log10 scale, viscosity, mPa·s.

Use the examples below as a reference point.
CCCO [propan-1-ol]; 0.19
CCCCO [butan-1-ol]; 0.30
CC(=O)[O-].Cn1cc[nH+]c1 [1-methylimidazolium acetate]; 0.70
O [water]; -0.14

Pending compound:
Data request: Consider the compound CO [methanol] and give its measured log10 of viscosity.
Data returned: -0.31

====

conditions: 298.15 K; 101.33 kPa; Liquid; Falling or rolling sphere viscometry
Result Type: viscosity (mPa·s)
Give bare numbers, in mPa·s.

CCCO; 1.976
CC(=O)[O-].Cn1cc[nH+]c1 [1-methylimidazolium acetate]; 6.926
O; 0.891
CCCCO; 2.573

Data request: What does the data say about its viscosity? Entry: CO
Data returned: 0.551

====

settings: 293.15 K; 101.33 kPa; Liquid; Vibrating tube method
What mass density was measured for each of the following?
One number for each entry, in kg/m3.

CCO; 789.48
CCCCO; 809.77
CC(=O)[O-].Cn1cc[nH+]c1 [1-methylimidazolium acetate]; 1079.75
CCCO; 803.58

Now look at this one.
Data request: Given the entry CO , report its measured mass density.
Data returned: 791.22

====

settings: 303.15 K; 101.33 kPa; Liquid; Falling or rolling sphere viscometry
viscosity vs 2 mPa·s: at or above is yes, below is no.

CCCCO; yes
CC(=O)[O-].Cn1cc[nH+]c1 [1-methylimidazolium acetate]; yes
O; no

Data request: In plain terms: is recorded viscosity at least 2 mPa·s for CCCO ?
Data returned: no

Data request: Moving on to CO
Data returned: no

====

settings: 313.15 K; 101.33 kPa; Liquid; Falling or rolling sphere viscometry
Give viscosity for every item shown.
Numbers only, in mPa·s.

See these solved cases before continuing.
CC(=O)[O-].Cn1cc[nH+]c1 [1-methylimidazolium acetate]; 4.395
O; 0.652
CO; 0.46
CCCO; 1.383

Turning now to a further record.
Data request: Which measured viscosity value corresponds to CCCCO ?
Data returned: 1.788

====

settings: 308.15 K; 101.33 kPa; Liquid; Vibrating tube method
Result Type: mass density (kg/m3)
One number for each entry, in kg/m3.

Below, each entry is followed by its recorded mass density result.
CC(=O)[O-].Cn1cc[nH+]c1 [1-methylimidazolium acetate]; 1066.45
CCCO; 791.51
CCCCO; 798.19

Kindly give each listed record's mass density.
1. CO
2. CCO

Data returned:
[777.06, 776.31]

====

So I've got a bunch of compounds here, and I need their viscosity values.
conditions: 293.15 K; 101.33 kPa; Liquid; Falling or rolling sphere viscometry
One number for each entry, in mPa·s.

Below, 4 compounds whose answers are already recorded.
CCCO; 2.206
O; 1.002
CO; 0.588
CC(=O)[O-].Cn1cc[nH+]c1 [1-methylimidazolium acetate]; 8.196

Please find the next compound below.
Data request: So what does the record say about viscosity for CCCCO ?
Data returned: 2.941

====

details: 298.15 K; 101.33 kPa; Liquid; Vibrating tube method
Result Type: mass density (kg/m3)
Give bare numbers, in kg/m3.

Answered examples (4):
CCO; 785.41
CC(=O)[O-].Cn1cc[nH+]c1 [1-methylimidazolium acetate]; 1075.33
CCCCO; 805.98
CCCO; 799.61

Could you now consider this next compound?
Data request: Requested field: mass density. Item: CO
Data returned: 786.52
